Where do the numbers come from? From patent US20160257732A1.

- study_system: HA of A/Wisconsin/67/05 (H3N2) (influenza A virus)
- experiment_description: cell-based or functional assay
property: Neutralization IC50, H3-WI05 (µg/mL)

- Antibody 11 (antibody, V domains shown) VH: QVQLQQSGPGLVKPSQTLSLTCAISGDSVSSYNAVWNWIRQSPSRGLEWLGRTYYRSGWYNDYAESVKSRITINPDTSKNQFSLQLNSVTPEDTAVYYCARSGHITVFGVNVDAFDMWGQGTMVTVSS VL: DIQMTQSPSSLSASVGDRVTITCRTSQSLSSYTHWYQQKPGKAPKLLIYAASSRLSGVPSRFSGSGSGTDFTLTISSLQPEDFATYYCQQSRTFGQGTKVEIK: 1.07
